target: GST-NTL6(1-168) (Arabidopsis thaliana, UniProt Q9SCK6 1-168); assay: universal protein binding microarray (PBM); high values mean tight binding; settings: protein: recombinant; tags: GST; chain copies: 2; dsDNA, one strand shown
Sequence (Q9SCK6 1-168): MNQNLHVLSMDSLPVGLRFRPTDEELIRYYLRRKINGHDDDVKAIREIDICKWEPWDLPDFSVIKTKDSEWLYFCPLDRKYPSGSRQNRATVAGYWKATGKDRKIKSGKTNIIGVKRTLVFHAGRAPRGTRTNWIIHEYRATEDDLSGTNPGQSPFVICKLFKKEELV
Assign labels as follows, please: T for binding signal below 0.2 E-score; F for binding signal equal to or exceeding 0.2 E-score.

[[record]]
sequence = "TAAGCAAA"
class = "F"

[[record]]
sequence = "GTCAAATA"
class = "T"

[[record]]
sequence = "ACAAGTCA"
class = "T"

[[record]]
sequence = "AGGAAACG"
class = "T"

[[record]]
sequence = "GTAAGTCA"
class = "F"

[[record]]
sequence = "ACTTTCCT"
class = "F"

[[record]]
sequence = "AAGCAACC"
class = "F"

[[record]]
sequence = "CGAGGAAA"
class = "T"

[[record]]
sequence = "GGAAGTCA"
class = "T"

[[record]]
sequence = "TAGGGAAA"
class = "T"

[[record]]
sequence = "GTTACGTA"
class = "F"

[[record]]
sequence = "AAGTCAAT"
class = "T"

[[record]]
sequence = "ACACGACA"
class = "T"

[[record]]
sequence = "AAAGTCAA"
class = "T"

[[record]]
sequence = "CTTACTTA"
class = "F"

[[record]]
sequence = "ACCTTACC"
class = "F"

[[record]]
sequence = "ACGTATCT"
class = "T"

[[record]]
sequence = "CCAAGCAA"
class = "F"

[[record]]
sequence = "AGTCTTTG"
class = "T"

[[record]]
sequence = "AAAGCAAC"
class = "T"

[[record]]
sequence = "CAAGCAAC"
class = "F"

[[record]]
sequence = "GAAAGGAA"
class = "F"

[[record]]
sequence = "ATTTCCTC"
class = "T"


* * *

Biological target: GST-ANAC055(1-171) (Arabidopsis thaliana, UniProt Q9LDY8 1-171)
Sequence: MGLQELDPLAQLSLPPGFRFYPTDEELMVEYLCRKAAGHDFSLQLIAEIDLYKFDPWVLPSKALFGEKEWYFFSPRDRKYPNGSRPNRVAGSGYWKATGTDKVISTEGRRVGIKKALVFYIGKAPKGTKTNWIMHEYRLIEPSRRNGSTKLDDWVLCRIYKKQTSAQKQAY
Assay: universal protein binding microarray (PBM); high values mean tight binding
Settings: protein: recombinant; tags: GST; chain copies: 2; dsDNA, one strand shown
Rule: binding signal below 0.2 E-score gives yes (1). Equal to or above 0.2 E-score gives no (0).

[[record]]
sequence = "GACGCAAC"
class = "no (0)"

[[record]]
sequence = "ACGTATCT"
class = "no (0)"

[[record]]
sequence = "CACGACAC"
class = "no (0)"

[[record]]
sequence = "AACGTACG"
class = "no (0)"

[[record]]
sequence = "CTACGTCA"
class = "yes (1)"

[[record]]
sequence = "GAAGGAAC"
class = "yes (1)"

[[record]]
sequence = "GTACGCTA"
class = "yes (1)"

[[record]]
sequence = "GAAGCAAC"
class = "yes (1)"

[[record]]
sequence = "AGAGGGAA"
class = "yes (1)"

[[record]]
sequence = "TGCGTACA"
class = "no (0)"

[[record]]
sequence = "ACGGAAGC"
class = "no (0)"

[[record]]
sequence = "ACGGCACT"
class = "no (0)"

[[record]]
sequence = "ACTAGTCA"
class = "yes (1)"

[[record]]
sequence = "TCACGGCA"
class = "no (0)"

[[record]]
sequence = "ACACGGTA"
class = "no (0)"

[[record]]
sequence = "AACGTAAT"
class = "no (0)"

[[record]]
sequence = "ACGTCACC"
class = "no (0)"

[[record]]
sequence = "GTAACTTA"
class = "yes (1)"

[[record]]
sequence = "GGACGCAA"
class = "yes (1)"

[[record]]
sequence = "AATTGACT"
class = "yes (1)"

[[record]]
sequence = "AAGGGTAA"
class = "yes (1)"

[[record]]
sequence = "AAAGTCGT"
class = "no (0)"

[[record]]
sequence = "GTGGAGTA"
class = "yes (1)"

[[record]]
sequence = "ACGCTAAC"
class = "yes (1)"

[[record]]
sequence = "GTTGACAA"
class = "yes (1)"

[[record]]
sequence = "CTAAGTAA"
class = "yes (1)"

[[record]]
sequence = "TCGTCAAA"
class = "yes (1)"

[[record]]
sequence = "GTGAAGAA"
class = "no (0)"

[[record]]
sequence = "TGCGTGAA"
class = "no (0)"

[[record]]
sequence = "GTGGCGTA"
class = "yes (1)"

[[record]]
sequence = "CACGTAAA"
class = "no (0)"

[[record]]
sequence = "CACACGCC"
class = "yes (1)"

[[record]]
sequence = "AAGTTACC"
class = "yes (1)"

[[record]]
sequence = "ATTACTTA"
class = "yes (1)"

[[record]]
sequence = "AGGAAACG"
class = "yes (1)"

[[record]]
sequence = "ATGCGTGC"
class = "no (0)"

[[record]]
sequence = "GAAACGTA"
class = "no (0)"

[[record]]
sequence = "TCACGCCA"
class = "yes (1)"

[[record]]
sequence = "ATACGTAT"
class = "no (0)"

[[record]]
sequence = "TTGACCAA"
class = "yes (1)"

[[record]]
sequence = "AGGGTAAA"
class = "yes (1)"

[[record]]
sequence = "ATGGTCAA"
class = "yes (1)"

[[record]]
sequence = "ACGCCACC"
class = "yes (1)"

[[record]]
sequence = "AAGCAATC"
class = "yes (1)"

[[record]]
sequence = "AAATACGT"
class = "no (0)"

[[record]]
sequence = "AATGCGTA"
class = "yes (1)"

[[record]]
sequence = "GAAGGAAA"
class = "yes (1)"

[[record]]
sequence = "AATACTTA"
class = "yes (1)"

[[record]]
sequence = "AGTCAACA"
class = "yes (1)"

[[record]]
sequence = "ATTGACTA"
class = "yes (1)"

[[record]]
sequence = "ACACGATA"
class = "no (0)"

[[record]]
sequence = "CACGGCTC"
class = "no (0)"

[[record]]
sequence = "GCGTATAA"
class = "no (0)"

[[record]]
sequence = "CTTGCGTC"
class = "yes (1)"

[[record]]
sequence = "AAAGCAAC"
class = "yes (1)"

[[record]]
sequence = "CAAAGTCA"
class = "yes (1)"

[[record]]
sequence = "ACGCAATC"
class = "no (0)"

[[record]]
sequence = "AGGAAACT"
class = "yes (1)"

[[record]]
sequence = "AACGTAAG"
class = "no (0)"

[[record]]
sequence = "GTACGGAA"
class = "no (0)"

[[record]]
sequence = "GTTTCCTA"
class = "yes (1)"

[[record]]
sequence = "GTGGTCAA"
class = "yes (1)"

[[record]]
sequence = "GGAAGCAA"
class = "yes (1)"

[[record]]
sequence = "ATACGGAA"
class = "no (0)"

[[record]]
sequence = "ACGTAATC"
class = "no (0)"

[[record]]
sequence = "ACGTAAAC"
class = "no (0)"

[[record]]
sequence = "ATAGTCAA"
class = "yes (1)"

[[record]]
sequence = "CACGCCAA"
class = "yes (1)"


* * *

Biological target: GST-ATAF1 NAC domain (Arabidopsis thaliana, UniProt Q39013 7-158)
Sequence: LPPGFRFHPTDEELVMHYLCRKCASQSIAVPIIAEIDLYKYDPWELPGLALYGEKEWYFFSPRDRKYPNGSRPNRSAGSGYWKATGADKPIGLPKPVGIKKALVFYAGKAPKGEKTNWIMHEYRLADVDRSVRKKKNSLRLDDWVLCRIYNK
Test: universal protein binding microarray (PBM); high values mean tight binding
Conditions: protein: recombinant; tags: GST; chain copies: 2; dsDNA, one strand shown
Metric: binding signal (E-score)

[[record]]
sequence = "CACGGCAA"
metric = "binding signal"
quantitative_result = 0.364

[[record]]
sequence = "AAGTCTAC"
metric = "binding signal"
quantitative_result = 0.0826

[[record]]
sequence = "GTAAGTAA"
metric = "binding signal"
quantitative_result = 0.245

[[record]]
sequence = "ACGTTACG"
metric = "binding signal"
quantitative_result = 0.268

[[record]]
sequence = "GAAAGGAA"
metric = "binding signal"
quantitative_result = 0.188

[[record]]
sequence = "CACTCAAC"
metric = "binding signal"
quantitative_result = 0.0909

[[record]]
sequence = "GAGGGTAA"
metric = "binding signal"
quantitative_result = 0.123

[[record]]
sequence = "ACGGAACC"
metric = "binding signal"
quantitative_result = 0.38


* * *

Target: GST-NST2(1-184) (Arabidopsis thaliana, UniProt Q9M274 1-184)
Sequence: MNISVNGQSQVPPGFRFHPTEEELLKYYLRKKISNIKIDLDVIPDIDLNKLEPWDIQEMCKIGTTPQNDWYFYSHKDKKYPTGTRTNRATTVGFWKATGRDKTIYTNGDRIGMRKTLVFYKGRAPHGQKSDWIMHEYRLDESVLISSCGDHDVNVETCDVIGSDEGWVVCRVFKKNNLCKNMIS
Assay: universal protein binding microarray (PBM); transcription factors of Arabidopsis thaliana; high values mean tight binding
Settings: protein: recombinant; tags: GST; chain copies: 2; dsDNA, one strand shown
Mark each entry Met if its binding signal sits below 0.2 E-score, and Not met for all others.

[[record]]
sequence = "GAGTTGAC"
target = "GST-NST2(1-184) (Arabidopsis thaliana, UniProt Q9M274 1-184)"
class = "Met"

[[record]]
sequence = "AGACGCAA"
target = "GST-NST2(1-184) (Arabidopsis thaliana, UniProt Q9M274 1-184)"
class = "Not met"

[[record]]
sequence = "GAAGTAAA"
target = "GST-NST2(1-184) (Arabidopsis thaliana, UniProt Q9M274 1-184)"
class = "Not met"

[[record]]
sequence = "GGATTGAC"
target = "GST-NST2(1-184) (Arabidopsis thaliana, UniProt Q9M274 1-184)"
class = "Met"

